The reported measurements were obtained from the supplement of paper PMC10567573.

B1: TMEM175 (parent)
chain: SCTIIFLASIFQLAMWTTALLHQA

# Variants of: B1
# Procedure Text: protein stability index of a GFP-peptide fusion (GPS, HEK-293T) (PSI 1-6); higher = more stable;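 further: lentivirally expressed fusions sorted by FACS into six bins by GFP to DsRed ratio, PSI derived from sequencing read proportions per bin multiplied by bin number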
# Condition Description: c terminus: a fixed tail appended
Observed Property: protein stability index

    mutation_annotation  observed_result
 0                  A8T             4.12
 1                 H22R              2.5
 2                 L20M             3.22
 3                  I4A             3.22
 4                 T18D             2.18
 5                 A14I              3.4
 6                  S1T             2.86
 7                 M15V             3.45
 8                  S9T              2.5
 9                 L13Y             2.81
10                  A8N             4.58
11                  I5H             3.05
12                  F6R             2.56
13                 L13V             3.31
14                 F11Y             1.79
15                 M15R             1.69
16                  C2W             2.26
17                 Q23T             3.34
18                 Q12A             3.29
19                 M15K             2.96
20                 A24Y             2.61
21                 L21T             3.02
22                  S1G              2.3
23                 T17N              3.8
24                  S1A             2.72
25                 L21C             3.36
26                 Q12I             3.51
27                  A8Y             3.74
